Data provenance: PubChem BioAssay

# experimentSummary: reversal of MRP1-mediated doxorubicin resistance, pilot screen, H69AR cells, doxorubicin co-treatment (AID 601)
# appliedConditions: H69AR cells, CellTiter-Glo, 72 h; compound alone cytotoxicity; at 10 µM
experimentalEndpoint: viability (%)

> print(dat)
                                    compound  experimentalendpoint  numericresult
 1     CS(=O)(=O)NCc1ccc(C(=O)NCc2ccccc2)cc1             viability            113
 2  Cc1nc2ccccn2c1/C(O)=C1\C(=O)C(=O)N(CCN2CCOCC2)C1c1cccs1 (stereo unspecified)             viability           98.7
 3                     Cc1nnc(SCc2ccccc2)n1N             viability           99.6
 4         CSc1ccccc1N=CC1=C(O)CC(C)(C)CC1=O             viability           89.2
 5  COCCNC(=O)C(C)OC(=O)c1nsc(Cl)c1Cl (stereo unspecified)             viability           99.3
 6  N#Cc1c(NC(=O)CSc2nc(N)cc(=O)[nH]2)sc2c1CCCCCC2             viability           91.5
 7     O=C(c1ccc2ccccc2n1)N1CCN(c2ccccc2)CC1             viability            112
 8  CCOC(=O)c1cccc(NC(=O)CSc2nnc(-c3cccnc3)n2CC)c1             viability            109
 9         O=C(CCn1c(=O)sc2ccccc21)NC1=NCCS1             viability           91.6
10  COc1ccccc1C(=O)Nc1ccc(S(=O)(=O)N2CCCC2)cc1             viability           94.5
11     CN(C)c1ccc(CNC2CC(C)(C)NC(C)(C)C2)cc1             viability           98.9

###

viability by entry:
# experimentSummary: reversal of MRP1-mediated doxorubicin resistance, pilot screen, H69AR cells, doxorubicin co-treatment (AID 601)
# appliedConditions: H69AR cells + 2 uM doxorubicin, CellTiter-Glo, 72 h; measured here: viability with 2 uM doxorubicin; at 10 µM; stronger effect = lower value
experimentalEndpoint: viability (%)

> print(dat)
                                   compound  experimentalendpoint  numericresult
1           Cc1ccc(C(=O)Nc2nc3c(s2)CCCC3)o1             viability           79.1
2   COc1ccc(OC)c(C(=O)COC(=O)c2cc(C)oc2C)c1             viability           87.9
3  CCC1SC2=NC(C)=C(C(=O)OC)C(c3ccc(C)cc3)N2C1=O (stereo not drawn)             viability           90.6

###

# assayedTarget: Receptor tyrosine-protein kinase erbB-2 (Homo sapiens) (UniProt P04626)
# Sequence (P04626 whole entry, looked up): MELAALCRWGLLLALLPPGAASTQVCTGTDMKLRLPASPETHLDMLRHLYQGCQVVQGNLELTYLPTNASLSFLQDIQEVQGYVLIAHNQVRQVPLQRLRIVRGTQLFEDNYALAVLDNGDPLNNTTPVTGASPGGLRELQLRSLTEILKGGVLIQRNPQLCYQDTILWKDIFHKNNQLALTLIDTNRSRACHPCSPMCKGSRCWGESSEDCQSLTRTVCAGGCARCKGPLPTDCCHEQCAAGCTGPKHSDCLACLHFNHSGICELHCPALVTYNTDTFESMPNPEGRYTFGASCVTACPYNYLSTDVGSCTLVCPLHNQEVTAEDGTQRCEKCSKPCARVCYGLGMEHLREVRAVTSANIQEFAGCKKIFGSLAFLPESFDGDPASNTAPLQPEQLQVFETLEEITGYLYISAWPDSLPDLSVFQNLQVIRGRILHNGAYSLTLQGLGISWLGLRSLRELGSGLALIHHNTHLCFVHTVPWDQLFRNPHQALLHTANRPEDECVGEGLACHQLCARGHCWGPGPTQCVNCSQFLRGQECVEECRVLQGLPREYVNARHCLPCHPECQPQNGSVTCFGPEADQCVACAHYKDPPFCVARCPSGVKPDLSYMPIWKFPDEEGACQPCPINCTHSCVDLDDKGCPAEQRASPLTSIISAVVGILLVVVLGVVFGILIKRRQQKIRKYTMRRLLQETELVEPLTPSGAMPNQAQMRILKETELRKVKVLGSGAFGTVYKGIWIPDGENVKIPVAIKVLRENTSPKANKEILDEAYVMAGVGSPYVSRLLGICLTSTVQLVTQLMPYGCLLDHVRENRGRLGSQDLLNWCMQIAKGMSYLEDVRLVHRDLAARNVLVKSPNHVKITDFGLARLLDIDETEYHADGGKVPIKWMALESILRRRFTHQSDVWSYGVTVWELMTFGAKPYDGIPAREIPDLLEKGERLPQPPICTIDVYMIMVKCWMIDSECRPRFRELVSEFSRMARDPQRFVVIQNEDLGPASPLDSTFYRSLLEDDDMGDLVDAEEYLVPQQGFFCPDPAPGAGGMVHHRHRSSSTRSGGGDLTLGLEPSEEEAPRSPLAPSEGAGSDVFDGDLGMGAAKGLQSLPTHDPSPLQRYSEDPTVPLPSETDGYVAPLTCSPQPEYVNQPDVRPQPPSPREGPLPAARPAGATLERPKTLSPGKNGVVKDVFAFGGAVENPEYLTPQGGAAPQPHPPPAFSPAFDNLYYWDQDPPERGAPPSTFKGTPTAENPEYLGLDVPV
# experimentSummary: reducers of endogenous Her2 protein level, primary screen, SKBR3 breast tumor cells, AlphaScreen, ATP viability (AID 461);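 also: lower value means less Her2 protein in the cells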
# appliedConditions: 18-24 h, at 10 µM, stronger effect = lower value
Reported Her2 level values for a set of molecules
experimentalEndpoint: Her2 level (%)

> print(dat)
                                    molecule  unitofmeasure  numericresult
 1         N#Cc1nc(COc2ccccc2)oc1NCCCn1ccnc1              %            103
 2  CCN(CCNC(=O)C1CCN(S(C)(=O)=O)CC1)c1ccccc1              %            104
 3                CCOc1cccc(OCCOCCN2CCCC2)c1              %             89
 4  CCn1nc(C(=O)OCC(=O)N2CCc3ccccc32)c2ccccc2c1=O              %            106
 5       CCCCn1c(NCCC)nc2c1c(=O)[nH]c(=O)n2C              %             80
 6  COc1ccc(C2c3sc(=O)[nH]c3SC3C4CCC(C4)C23)cc1 (stereo not given)              %           94.5
 7  COc1cc(C2C(C#N)=C(N)OC3=C2C(=O)CCC3)ccc1OC(=O)N1CCOCC1 (stereo not given)              %           91.5
 8            Cc1cc2c(cc1C)-c1nnnn1C(C)(C)C2              %           97.5
 9    O=C(CSc1ncnc2sc3c(c12)CCCCC3)NCc1ccco1              %             61
10    COC(=O)c1ccccc1S(=O)(=O)NC(=O)c1ccccc1              %             74
11  CCN(Cc1nc2ccccc2c(=O)[nH]1)Cc1nc2cc(OC)c(OC)cc2c(=O)[nH]1              %            114
12             c1ccc(Oc2ccc(-n3cnnn3)cc2)cc1              %            122
13  CSCCC(NC(=O)c1ccco1)C(=O)OC(C)C(=O)NC(=O)NC1CCCCC1 (stereo not given)              %             99
14  Cc1ccc2[nH]cc(C(=O)CN3CCC4(CC3)OCCO4)c2c1              %             90
15       COc1cccc(C(=O)OCn2nnc3ccccc3c2=O)c1              %           92.5
16   COc1ccc(C2(CN(C(C)=O)C(C)=O)CCCC2)cc1OC              %             93
17  CCCCC(O)(C(NC=O)C(=O)OC)C(F)(F)F (stereo not given)              %             85
18                COc1ccccc1-c1cn[nH]c(=S)n1              %            108
19      CCOc1ccc(NCCC(=O)c2ccc3c(c2)OCO3)cc1              %           84.5
20  COc1cccc(N2CCN(CC(=O)Nc3nnc(-c4ccccc4)s3)CC2)c1              %             86
21            CN(C(=O)c1cc2sccc2n1C)C1CCCCC1              %            106
22   Cc1nc2c(-c3ccccc3)c(C)nn2c(C)c1CCC(=O)O              %            100
23  COCC(=O)Nc1sc2c(c1C(=O)OC)C(C(=O)OC)CC2 (stereo not given)              %            108
24  COC(=O)c1ccc(NC(=O)C(C)N2C(=O)c3ccccc3C2=O)cc1 (stereo not given)              %             94
25  Cc1cc(C)n(-c2cc(N3CCOCC3)nc(-c3ccccc3)n2)n1              %            104
26  CC(c1ccccc1)N1C(=O)c2ccc(C(=O)NCc3ccco3)cc2C1=O (stereo not given)              %             84
27     O=C(CN1C(=O)CCSc2ccccc21)Nc1ccc(F)cc1              %            112
28       CC1(C)CC(CCNC(=O)c2ccco2)CC(C)(C)N1              %             92
29             O=C(NCCN1CCOCC1)c1csc2c1CCCC2              %             83
30  COCCn1nnnc1CN(Cc1cccnc1)Cc1cc2cc(OC)ccc2[nH]c1=O              %             75
31  CC(NC(=O)c1ccco1)C(c1cccs1)N1CCN(c2ccc(F)cc2)CC1 (stereo not given)              %             89
32  Cc1csc(NC(=O)CSc2nsc(SCC(=O)Nc3nc(C)cs3)c2C#N)n1              %             69
33                 CCCOc1cccc(-c2nnc(N)s2)c1              %            121
34  O=C(NCCc1ccccc1)C1CCN(S(=O)(=O)N2CCC3(CC2)OCCO3)CC1              %           88.5
35  CCOC(=O)C(NCc1ccccc1OC)(NC(C)=O)C(F)(F)F (stereo not given)              %             91
